All figures here come from patent US20240158412A1.

pIC50: −log10 of the molar value.
VALUE_TYPE: pIC50

Problem: Lab note: need pIC50 with USP7 (Homo sapiens) for entry N[C@@H]1CCN(C2CCOc3cc(Cl)cc(-c4ccnc5cc(CN6C(=O)CCC6=O)sc45)c32)C1 (stereo in doubt) [Example 230a] , please look it up.
Solution: 7.00 to 8.00

Problem: Lab note: need pIC50 with USP7 (Homo sapiens) for entry O=C1CCC(=O)N1Cc1cc2nccc(-c3cc(Cl)cc4c3N([C@H]3CCNC3)CCC4)c2s1 , please look it up.
Solution: > 8.00

Problem: Lab note: need pIC50 with USP7 (Homo sapiens) for entry CN1CC[C@@H](N2CCCc3cc(Cl)cc(-c4ccnc5cc(CN6C(=O)CCC6=O)sc45)c32)C1 , please look it up.
Solution: > 8.00

Problem: Lab note: need pIC50 with USP7 (Homo sapiens) for entry O=C1CCC(=O)N1Cc1cc2nccc(-c3cc(Cl)cc4c3N(C3CNC3)CCO4)c2s1 , please look it up.
Solution: 7.00 to 8.00

###

- TGT: USP7 (Homo sapiens)
- TEST_METHOD_NOTES: biochemical;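 note: fluorescence intensity readout of USP7 enzymatic activity, reaction incubated 90 min at room temperature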
VALUE_TYPE: IC50

Problem: Lab note: need IC50 with USP7 (Homo sapiens) for entry Cc1cc(-c2cc(Cl)cc3c2N([C@H]2CCNC2)CCC3)c2sc(CN3C(=O)CCC3=O)cc2n1 [Example 116] , please look it up.
Solution: 101 to 1000 nM

Problem: Lab note: need IC50 with USP7 (Homo sapiens) for entry CC1(C)OC(=O)N(Cc2cc3nccc(-c4cc(Cl)cc5c4N([C@@H]4CNC6(CCC6)C4)CCC5)c3s2)C1=O [Example 152] , please look it up.
Solution: 10 to 100 nM

Problem: Lab note: need IC50 with USP7 (Homo sapiens) for entry O=C1CCC(=O)N1Cc1cc2ncnc(-c3cc(Cl)cc4c3N(C3CNC5(CCC5)C3)CCC4)c2s1 (single isomer, unassigned) [Example 161b] , please look it up.
Solution: 101 to 1000 nM

Problem: Lab note: need IC50 with USP7 (Homo sapiens) for entry O=C1CCC(=O)N1Cc1cc2nccc(-c3cc(Cl)cc4c3N([C@H]3C[C@@H](O)C3)CCC4)c2s1 [Example 41] , please look it up.
Solution: > 1000 nM

###

So I've got a bunch of molecules here, and I need their IC50 values.
- TGT: USP7 (Homo sapiens, UniProt Q93009)
- Sequence (Q93009 whole entry): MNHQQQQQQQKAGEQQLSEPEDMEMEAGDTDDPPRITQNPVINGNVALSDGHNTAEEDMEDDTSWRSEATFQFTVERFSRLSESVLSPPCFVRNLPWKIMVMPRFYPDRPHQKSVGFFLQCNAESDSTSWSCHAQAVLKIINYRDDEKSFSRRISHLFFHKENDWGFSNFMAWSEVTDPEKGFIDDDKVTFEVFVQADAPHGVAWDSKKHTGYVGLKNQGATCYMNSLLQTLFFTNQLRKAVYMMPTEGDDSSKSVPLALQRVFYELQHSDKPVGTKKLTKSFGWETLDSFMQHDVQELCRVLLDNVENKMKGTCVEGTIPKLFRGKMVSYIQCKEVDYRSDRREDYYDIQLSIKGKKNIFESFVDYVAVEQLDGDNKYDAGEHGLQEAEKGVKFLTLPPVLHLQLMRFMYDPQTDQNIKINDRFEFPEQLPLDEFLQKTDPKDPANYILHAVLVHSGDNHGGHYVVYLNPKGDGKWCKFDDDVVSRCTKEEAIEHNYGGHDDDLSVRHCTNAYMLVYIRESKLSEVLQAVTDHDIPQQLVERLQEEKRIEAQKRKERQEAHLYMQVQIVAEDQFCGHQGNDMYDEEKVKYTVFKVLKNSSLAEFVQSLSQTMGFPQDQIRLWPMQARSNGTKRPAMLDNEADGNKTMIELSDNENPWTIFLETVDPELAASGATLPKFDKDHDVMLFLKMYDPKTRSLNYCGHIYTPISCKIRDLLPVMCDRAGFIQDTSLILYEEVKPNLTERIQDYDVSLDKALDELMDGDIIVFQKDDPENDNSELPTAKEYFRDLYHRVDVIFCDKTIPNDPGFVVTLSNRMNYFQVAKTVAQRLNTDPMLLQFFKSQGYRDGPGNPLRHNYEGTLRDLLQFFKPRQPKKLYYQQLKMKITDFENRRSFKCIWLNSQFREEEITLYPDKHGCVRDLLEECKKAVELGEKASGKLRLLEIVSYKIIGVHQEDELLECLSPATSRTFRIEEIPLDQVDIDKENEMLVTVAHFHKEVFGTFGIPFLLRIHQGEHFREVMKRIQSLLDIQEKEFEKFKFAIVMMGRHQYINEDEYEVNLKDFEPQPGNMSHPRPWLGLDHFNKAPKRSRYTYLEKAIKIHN

Problem: I have this molecule here, O=C1CCC(=O)N1Cc1cc2ncnc(-c3cc(Cl)cc4c3N([C@@H]3CNC5(CCC5)C3)C[C@H]3C[C@@H]43)c2s1 [Example 167a] , and I need its recorded IC50.
Solution: < 10 nM

Problem: I have this molecule here, O=c1ccn(CCOC(F)F)c(=O)n1Cc1cc2nccc(-c3cc(Cl)cc4c3N([C@H]3CCNC3)CCC4)c2s1 [Example 61] , and I need its recorded IC50.
Solution: < 10 nM

Problem: I have this molecule here, CNC(=O)N1CC(N2CCCc3cc(Cl)cc(-c4ccnc5cc(CN6C(=O)CCC6=O)sc45)c32)C1 [Example 7] , and I need its recorded IC50.
Solution: 101 to 1000 nM

Problem: I have this molecule here, COC(=O)[C@@]1(C)C[C@@H](N2CCCc3cc(Cl)cc(-c4ccnc5cc(CN6C(=O)CCC6=O)sc45)c32)CN1 (single isomer, unassigned) [Example 201] , and I need its recorded IC50.
Solution: 101 to 1000 nM

Problem: I have this molecule here, N#Cc1cc2c(c(-c3ccnc4cc(Cn5c(=O)ccn(CC(F)(F)F)c5=O)sc34)c1)N([C@H]1CCN(C3CCC3)C1)CCC2 [Example 86] , and I need its recorded IC50.
Solution: 10 to 100 nM

Problem: I have this molecule here, O=c1ccn(C[C@H](O)C(F)(F)F)c(=O)n1Cc1cc2nccc(-c3cc(Cl)cc4c3N([C@H]3CCNC3)CCC4)c2s1 [Example 64] , and I need its recorded IC50.
Solution: < 10 nM
